Tested on: LOC_OS01G01410-cb001
assay procedure: thermal shift delta Tm vs DMSO control; higher = stronger stabilization (binding);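 also: purified Escherichia coli-expressed rice kinase domain construct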
measurement setup: 12.5 µM; protein concentration 2 µM
Exercise: for every item that follows, state its recorded thermal shift delta Tm.
Provide the reading as a plain figure in °C.

Value of thermal shift delta Tm reported for the molecule CCN(CC)CCCC(C)Nc1nc(C)cc(Nc2ccc3nc(C)cc(N)c3c2)n1 (stereo not drawn) is 1.12

Value of thermal shift delta Tm reported for the molecule C1=N/C2=N/c3ccc(OCCN4CCCC4)c(c3)COC/C=C/COCc3cccc(c3)C(=C1)N2 [Pacritinib (SB1518)] is 2.82

Value of thermal shift delta Tm reported for the molecule Cc1ccc(Nc2nccc(N(C)c3ccc4c(C)n(C)nc4c3)n2)cc1S(N)(=O)=O [Pazopanib] is 2.16

Value of thermal shift delta Tm reported for the molecule C=C[C@@](C)(/C=C/c1ccc(O)cc1)CCC=C(C)C is 1

Value of thermal shift delta Tm reported for the molecule O=C1NCCc2[nH]c(-c3ccncc3)cc21 is 0.69

Value of thermal shift delta Tm reported for the molecule COc1cc2nccc(Oc3ccc(NC(=O)C4(C(=O)Nc5ccc(F)cc5)CC4)cc3)c2cc1OC [Cabozantinib malate (XL184)] is 0.01

Value of thermal shift delta Tm reported for the molecule CS(=O)(=O)c1cccc(CNc2nc(Nc3ccc4c(c3)CCC(=O)N4)ncc2C(F)(F)F)c1 is 3.58

Value of thermal shift delta Tm reported for the molecule CN(C)S(=O)(=O)c1ccc2c(c1)/C(=C/c1cc3c([nH]1)CCCC3)C(=O)N2 is 0

* * *

System: LOC_OS01G21960-cb002
assay procedure: thermal shift delta Tm vs DMSO control; higher = stronger stabilization (binding)
measurement setup: 12.5 µM; protein concentration 2 µM
Parameter threshold = 1 °C. Response is T when thermal shift delta Tm meets or exceeds it, else F.

Given Cc1cc(Nc2ncnc3ccc(NC4=NC(C)(C)CO4)cc23)ccc1Oc1ccn2ncnc2c1 [Irbinitinib (ARRY-380, ONT-380)] , state whether its thermal shift delta Tm is at least 1 °C.
F

Given C=CC(=O)Nc1ccc(CN2C(=O)N(c3cc(OC)cc(OC)c3)Cc3cnc(Nc4ccc(N5CCN(C)CC5)cc4)nc32)cc1 , state whether its thermal shift delta Tm is at least 1 °C.
T

Given CN1CCN(S(=O)(=O)c2ccc(-c3cnc(N)c(C(=O)Nc4cccnc4)n3)cc2)CC1 , state whether its thermal shift delta Tm is at least 1 °C.
T

Given Cc1ccc(Nc2cc(N[C@@H]3CCCC[C@@H]3N)nnc2C(N)=O)nc1C , state whether its thermal shift delta Tm is at least 1 °C.
T

Given COc1ccc(CC(=O)Nc2nc3c(s2)CCc2ccccc2-3)cc1OC , state whether its thermal shift delta Tm is at least 1 °C.
F

Given O=C(Nc1nccs1)C(c1cc(F)ccc1O)N1Cc2ccccc2C1=O (centres undefined) , state whether its thermal shift delta Tm is at least 1 °C.
F

Given Cn1cnc2c(F)c(Nc3ccc(Br)cc3Cl)c(C(=O)NOCCO)cc21 [Selumetinib (AZD6244)] , state whether its thermal shift delta Tm is at least 1 °C.
F

Given CC(C)(C)c1ccc(S(=O)(=O)/C=C/C#N)cc1 , state whether its thermal shift delta Tm is at least 1 °C.
T

Given OC(c1cc(-c2ccc(Cl)cc2)nc2ccccc12)C1CCCCN1 (centres undefined) [Vacquinol-1] , state whether its thermal shift delta Tm is at least 1 °C.
T

* * *

Test system: LOC_OS07G07230-cb001
assay procedure: thermal shift delta Tm vs DMSO control; higher = stronger stabilization (binding)
measurement setup: 12.5 µM; protein concentration 2 µM
Where a name gives a salt, the structure may show the parent alone.
Parameter threshold = 0.3 °C. Response is True when thermal shift delta Tm meets or exceeds it, else False.

Given O=C(O)CCC(=O)Nc1ccc(Br)cn1 , state whether its thermal shift delta Tm is at least 0.3 °C.
False

Given C[C@H](Nc1ncnc2nc[nH]c12)c1cc2cccc(Cl)c2c(=O)n1-c1ccccc1 , state whether its thermal shift delta Tm is at least 0.3 °C.
True

Given O=C(Nc1cccnc1)c1cc(-c2ccnc(F)c2)ccc1OCc1ccccc1 , state whether its thermal shift delta Tm is at least 0.3 °C.
False

Given Cc1ccccc1-n1c(Cn2nc(-c3cccc(O)c3)c3c(N)ncnc32)nc2cccc(C)c2c1=O , state whether its thermal shift delta Tm is at least 0.3 °C.
True

Given Cc1[nH]c(/C=C2\C(=O)Nc3ccc(S(=O)(=O)Cc4c(Cl)cccc4Cl)cc32)c(C)c1C(=O)N1CCC[C@@H]1CN1CCCC1 , state whether its thermal shift delta Tm is at least 0.3 °C.
True

Given CN1CCN(c2ccc(OC(F)(F)F)c(Nc3ncc4c(n3)-c3c(c(C(N)=O)nn3CCO)CC4)c2)CC1 , state whether its thermal shift delta Tm is at least 0.3 °C.
False

Given CN1CC(O)C2=C/C(=N/NC(N)=O)C(=O)C=C21 (stereo not given) , state whether its thermal shift delta Tm is at least 0.3 °C.
True

Given COc1cc(N2CCN(C)CC2)ccc1Nc1nccc(-c2cn(C)c3cnccc23)n1 , state whether its thermal shift delta Tm is at least 0.3 °C.
True

Given COc1cc2ncnc(Nc3ccc(Cl)cc3F)c2cc1OC , state whether its thermal shift delta Tm is at least 0.3 °C.
False

Given CCc1nc(C(N)=O)c(Nc2ccc(N3CCC(N4CCN(C)CC4)CC3)c(OC)c2)nc1NC1CCOCC1 , state whether its thermal shift delta Tm is at least 0.3 °C.
False

Given OC1CCC(Oc2cccc3cnc(Nc4ccc5nc[nH]c5c4)nc23)CC1 (stereo not given) , state whether its thermal shift delta Tm is at least 0.3 °C.
True

Given COc1cc(OC)cc(N(CCNC(C)C)c2ccc3ncc(-c4cnn(C)c4)nc3c2)c1 , state whether its thermal shift delta Tm is at least 0.3 °C.
True

Given O=C1NC(=O)/C(=C/c2cccc(C(F)(F)F)c2)S1 , state whether its thermal shift delta Tm is at least 0.3 °C.
True

Given CC1(C)C=Cc2c(ccc3c2OC[C@@H](c2ccc(O)cc2O)C3)O1 , state whether its thermal shift delta Tm is at least 0.3 °C.
False

Given C=CC(=O)N1CCC(Oc2cc3c(Nc4ccc(Cl)c(Cl)c4F)ncnc3cc2OC)CC1 [Poziotinib (HM781-36B)] , state whether its thermal shift delta Tm is at least 0.3 °C.
False

Given COCCOc1ccc2c(c1)ncn2-c1ccc2cccc(N3CCC(N)CC3)c2n1 , state whether its thermal shift delta Tm is at least 0.3 °C.
False

Given O=C(O)c1ccc2c3c1cccc3c(=O)n1c3ccccc3nc21 , state whether its thermal shift delta Tm is at least 0.3 °C.
True

Given COc1cc2nccc(Oc3ccc(NC(=O)NC4CC4)c(Cl)c3)c2cc1C(N)=O [Lenvatinib (E7080)] , state whether its thermal shift delta Tm is at least 0.3 °C.
True

Given O=C1Nc2ccccc2/C1=C1/Nc2ccccc2C1=O , state whether its thermal shift delta Tm is at least 0.3 °C.
True

Given COc1cc2ncnc(Nc3ccc(Oc4ccccc4)cc3C)c2cc1OC , state whether its thermal shift delta Tm is at least 0.3 °C.
True

Given C[C@H](Nc1ncnc2[nH]cnc12)c1cc2ccc(F)cc2nc1-c1ccccn1 , state whether its thermal shift delta Tm is at least 0.3 °C.
False

Given COc1ccc(-c2cc3c(C)nc(N)nc3n([C@H]3CC[C@H](OCCO)CC3)c2=O)cn1 , state whether its thermal shift delta Tm is at least 0.3 °C.
False

Given COC(=O)Nc1ccc(-c2nc(N3CCOCC3)c3cnn(C4CCN(C(=O)OC)CC4)c3n2)cc1 , state whether its thermal shift delta Tm is at least 0.3 °C.
False

Given Nc1ncccc1-c1nc2ccc(-c3ccccc3)nc2n1-c1ccc(C2(N)CCC2)cc1 [Miransertib (ARQ 092) HCl] , state whether its thermal shift delta Tm is at least 0.3 °C.
True

Given CC(C)c1c2cc(-c3ccnc(NC4CCC(NC5CCOCC5)CC4)n3)ccc2nn1C (stereo not given) , state whether its thermal shift delta Tm is at least 0.3 °C.
True

Given COC(=O)[C@]12CCC(C)(C)C[C@H]1[C@H]1C(=O)C=C3[C@@]4(C)C=C(C#N)C(=O)C(C)(C)[C@@H]4CC[C@@]3(C)[C@]1(C)CC2 , state whether its thermal shift delta Tm is at least 0.3 °C.
False

Given C=CC(=O)Nc1cccc(Nc2nc(Nc3ccc(NC4CN(CCF)C4)cc3OC)ncc2C(F)(F)F)c1 , state whether its thermal shift delta Tm is at least 0.3 °C.
True

Given N#CC(=C(/N)Sc1ccccc1N)/C(C#N)=C(\N)Sc1ccccc1N , state whether its thermal shift delta Tm is at least 0.3 °C.
True

Given O=c1ccc2ccc(O)c(O)c2o1 , state whether its thermal shift delta Tm is at least 0.3 °C.
False

Given CCOc1cc(N2CCC(O)CC2)ccc1Nc1ncc2c(n1)N(C)c1ccccc1C(=O)N2C , state whether its thermal shift delta Tm is at least 0.3 °C.
True
